Protein target, amino acids: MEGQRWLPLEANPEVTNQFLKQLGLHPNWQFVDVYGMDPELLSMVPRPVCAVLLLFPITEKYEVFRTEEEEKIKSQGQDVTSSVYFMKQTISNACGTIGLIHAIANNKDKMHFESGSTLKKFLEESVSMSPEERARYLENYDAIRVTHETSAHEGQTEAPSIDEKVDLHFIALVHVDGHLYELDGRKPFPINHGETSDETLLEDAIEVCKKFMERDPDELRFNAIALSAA
Below is a list of entries, each paired with its recorded log10 of IC50 value.
Recall that a logarithmic scale is used here: each number is log10 of IC50 in nM.

As a guide, the following entries are already answered.
>>> print(df.to_string())
                                   compound  measured_number
0  c1ccc(OCCCON=C2c3ccccc3-c3nn4nnnc4nc32)cc1 (mixture of isomers) [8c]             2.08
1  C=CCON=C1c2ccccc2-c2nn3c(CC)nnc3nc21 (mixture of isomers) [10f]             2.37
2  C=CCON=C1c2ccccc2-c2nn3c(CCCC)nnc3nc21 (mixture of isomers) [5d]             2.40

Please find the next compound below.
(Q) Return reported log10 of IC50; argument: CON=C1c2ccccc2-c2nn3c(C)nnc3nc21 (mixture of isomers) [5a]
(A) 2.61

* * *

Test system: HCT116 colon cancer cells
Experiment: HCT116 cell viability and proliferation assay (MTS)
Type: cell-based
Conditions: Homo sapiens, HCT-116, 72 hours, mean of 3 independent experiments, read-out: HCT116 GI50 D3
Experimental: HCT116 colon cancer cells were obtained from ATCC (American Type Culture Collection), and maintained in Mc Coy's 5A medium containing 10% FBS, 3 mM glutamine and 1% penicillin/streptomycin. Cells were incubated at 37° C. in a humidified atmosphere containing 5% CO2. […] Cells were incubated with the compounds for 72 hours, and their viability then assayed by the addition of MTS for 2 hours. Absorbance at 492 nm was measured directly from the 96-well culture plates. […]
readout type: GI50 (nM)
Only the number, expressed in nM, is required.

>>> df
                                   compound  unit  measured_number
0  CCc1nnc2nc3c(nn12)-c1ccccc1C3=NOCc1ccccc1 (mixture of isomers) [10h]    nM             1910
1  CCCCCCCCCCON=C1c2ccccc2-c2nn3nnnc3nc21 (mixture of isomers)    nM              398
2  C=CCON=C1c2ccccc2-c2nn3c(CCCC)nnc3nc21 (mixture of isomers)    nM             1010
3  CCON=C1c2ccccc2-c2nn3c(CC)nnc3nc21 (mixture of isomers) [10d]    nM             3930
4  COCCON=C1c2ccccc2-c2nn3nnnc3nc21 (mixture of isomers)    nM              273

(Q) State the recorded GI50 for this entry: C=CCON=C1c2ccccc2-c2nn3nnnc3nc21 (mixture of isomers)
(A) 96

(Q) For ON=C1c2ccccc2-c2nn3nnnc3nc21 (mixture of isomers) then?
(A) 363

(Q) How about CCc1nnc2nc3c(nn12)-c1ccccc1C3=NOC (mixture of isomers) [10b] ?
(A) 3360

Cited source for all entries: patent US20100048575A1
